- Tested on: FGF2-induced angiogenesis in chick chorioalloantoic membranes
- test protocol: Neovascularization in the Chick Chorioalloantoic Membrane (CAM), FGF2-stimulated CAM Model
- Format: in vivo
- measurement context: Gallus gallus; FGF2 + analog, 10 uM (Table 4); read-out: % inhibition ± SEM Branch point in CAM
measured quantity: inhibition at 10 µM

- compound: "C[Se](=O)c1ccccc1 (stereo not drawn) [Example 18]"
  value reported: "39%"
- compound: "CC[Se](=O)(=O)CC [Example 17]"
  value reported: "39.9%"
- compound: "CS(=O)(=O)CS(C)(=O)=O [Example 12]"
  value reported: "40.6%"

Sourced from patent US20100080843A1
